# targetOrTestSystem: UniProt P51686
# protocolDetails: FLIPR calcium flux assay using hCCR9 over expressed cells (TECK stimulation)
# Format: cell-based
# Parameters: expressed in transfected cells; host or cells: Chem-1 cells overexpressing hCCR9
# measurementContext: Chem1-hCCR9 overexpressing cells; Ki determined from IC50 of TECK-induced intracellular calcium increase
parameter: pKi
Scale note: pKi = -log10(concentration in M).

smilesText | pKi
Cc1cc2c(Cl)ccc(NS(=O)(=O)c3ccc(C(C)(C)C#N)cc3)n2n1 | 6.29

Let's switch to this compound now.
Write down the reported pKi of `Cn1ccc(-c2cc3c(Cl)ccc(NS(=O)(=O)c4ccc(C(C)(C)C)cc4)n3n2)n1` , test system: UniProt P51686.
7.03

----------
Catalogue of log10 Ki readings, one per entry.
# targetOrTestSystem: CCR9 (Homo sapiens, UniProt P51686)
# Sequence (P51686 whole entry): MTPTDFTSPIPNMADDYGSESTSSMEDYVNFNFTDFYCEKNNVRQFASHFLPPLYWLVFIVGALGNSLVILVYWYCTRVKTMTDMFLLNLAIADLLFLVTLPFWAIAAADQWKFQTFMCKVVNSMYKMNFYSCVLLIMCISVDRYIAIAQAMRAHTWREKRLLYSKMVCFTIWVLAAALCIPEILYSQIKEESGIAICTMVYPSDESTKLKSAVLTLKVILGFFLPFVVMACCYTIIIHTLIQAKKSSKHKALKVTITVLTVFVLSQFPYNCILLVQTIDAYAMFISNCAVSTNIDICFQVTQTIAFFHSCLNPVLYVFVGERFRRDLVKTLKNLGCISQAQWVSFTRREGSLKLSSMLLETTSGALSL
# protocolDetails: FLIPR calcium flux assay using MOLT4 cells (TECK stimulation)
# Format: cell-based
# Set-up: endogenous in cells; host or cells: MOLT4 (human T-cell line)
# measurementContext: MOLT4 cells (a human T-cell line); Ki determined from IC50 of TECK-induced intracellular calcium increase
On a log10 scale: recorded Ki, unit nM.

smilesText | targetOrTestSystem | log10 Ki
CC(C)(C#N)c1ccc(S(=O)(=O)Nc2ccc(Cl)c3cc(-c4cccnc4)nn23)cc1 | CCR9 (Homo sapiens, UniProt P51686) | 2.34

Which log10 Ki is listed for `CC(C)(C)c1ccc(S(=O)(=O)Nc2ccc(C#N)c3cc(-c4cccnc4)nn23)cc1` ?
1.94

Can you handle `Cc1cncc(-c2cc3c(Cl)ccc(NS(=O)(=O)c4ccc(C(C)(C)C)cc4)n3n2)c1` next?
2.02

Can you handle `CC(C)(C)c1ccc(S(=O)(=O)Nc2ccc(C#N)c3cc(-c4ccncc4)nn23)cc1` next?
1.59

Can you handle `Cc1cc2nccc(NS(=O)(=O)c3ccc(C(F)(F)F)cc3)n2n1` next?
3.23

Can you handle `O=S(=O)(Nc1ccc(Cl)c2cc(-c3cccnc3)nn12)c1ccc(OC(F)(F)F)cc1` next?
1.96

----------
# targetOrTestSystem: CCR9 (Homo sapiens)
# protocolDetails: FLIPR calcium flux assay using MOLT4 cells (TECK stimulation)
# Format: cell-based
# Set-up: endogenous in cells; host or cells: MOLT4 (human T-cell line)
# measurementContext: MOLT4 cells (a human T-cell line); Ki determined from IC50 of TECK-induced intracellular calcium increase
parameter: pKi
Scale note: pKi = -log10(concentration in M).

Some compounds with known pKi results, for comparison:
smilesText | pKi
CC(C)(C)c1ccc(S(=O)(=O)Nc2ccc(Cl)c3cc(-c4cnccn4)nn23)cc1 | 6.71
CCn1cc(-c2cc3c(Cl)ccc(NS(=O)(=O)c4ccc(C(C)(C)C)cc4)n3n2)cn1 | 6.94
COc1cncc(-c2cc3c(Cl)ccc(NS(=O)(=O)c4ccc(C(C)(C)C)cc4)n3n2)c1 | 6.72
Cc1ncccc1-c1cc2c(C#N)ccc(NS(=O)(=O)c3ccc(C(C)(C)C)cc3)n2n1 | 7.43
COc1cc(-c2cc3c(Cl)ccc(NS(=O)(=O)c4ccc(C(C)C)cc4)n3n2)c[n+]([O-])c1 | 7.14
CC(C)(C)c1ccc(S(=O)(=O)Nc2ccc(Cl)c3cc(-c4ccsc4C(=O)O)nn23)cc1 | 7.10
Cn1nccc1-c1cc2c(C#N)ccc(NS(=O)(=O)c3ccc(C(C)(C)C)cc3)n2n1 | 7.39
O=S(=O)(Nc1ccnc2cc(C3CC3)nn12)c1ccc(OC(F)(F)F)cc1 | 5.80

Which pKi is listed for `Cc1ncccc1-c1cc2c(Cl)ccc(NS(=O)(=O)c3ccc(C(C)(C)C)cc3)n2n1` ?
7.07

Can you handle `CC(C)(C)c1ccc(S(=O)(=O)Nc2ccc(C#N)c3cc(-c4cnco4)nn23)cc1` next?
7.57

Can you handle `Cn1nccc1-c1cc2c(Cl)ccc(NS(=O)(=O)c3ccc(C(C)(C)C)cc3)n2n1` next?
6.98

Can you handle `COc1ccc(-c2cc3c(Cl)ccc(NS(=O)(=O)c4ccc(C(C)(C)C)cc4)n3n2)cn1` next?
6.72
